- assay_system: recombinant human C-proteinase (Homo sapiens, UniProt P13497)
- Sequence (P13497 121-986): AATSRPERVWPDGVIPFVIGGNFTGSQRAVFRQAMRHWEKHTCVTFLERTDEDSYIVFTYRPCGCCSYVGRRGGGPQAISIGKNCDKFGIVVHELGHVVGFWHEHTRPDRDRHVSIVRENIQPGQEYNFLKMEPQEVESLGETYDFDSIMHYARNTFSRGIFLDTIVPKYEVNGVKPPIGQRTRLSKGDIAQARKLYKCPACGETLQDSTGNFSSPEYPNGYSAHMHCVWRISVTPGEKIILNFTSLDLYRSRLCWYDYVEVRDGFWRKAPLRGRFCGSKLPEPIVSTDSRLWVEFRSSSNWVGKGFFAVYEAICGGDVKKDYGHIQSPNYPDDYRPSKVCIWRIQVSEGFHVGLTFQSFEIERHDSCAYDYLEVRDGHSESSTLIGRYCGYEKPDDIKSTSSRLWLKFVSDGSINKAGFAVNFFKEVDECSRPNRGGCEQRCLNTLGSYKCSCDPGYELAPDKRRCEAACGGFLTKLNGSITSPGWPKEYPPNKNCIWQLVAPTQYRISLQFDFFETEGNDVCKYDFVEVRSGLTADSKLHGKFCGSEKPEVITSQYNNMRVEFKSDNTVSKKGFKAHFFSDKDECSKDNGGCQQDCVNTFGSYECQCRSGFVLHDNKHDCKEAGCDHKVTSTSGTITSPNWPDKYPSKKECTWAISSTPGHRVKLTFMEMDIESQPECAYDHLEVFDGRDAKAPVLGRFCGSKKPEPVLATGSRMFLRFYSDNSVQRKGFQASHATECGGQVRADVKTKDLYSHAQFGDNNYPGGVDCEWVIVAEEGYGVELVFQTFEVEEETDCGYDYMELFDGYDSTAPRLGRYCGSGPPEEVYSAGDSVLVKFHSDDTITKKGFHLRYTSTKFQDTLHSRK
- test_summary: C-proteinase IC50 assay with fluorogenic peptide
- Format: biochemical
- condition_details: recombinant human C-proteinase, 50 μM fluorogenic peptide, 4 hours at 37° C.; read-out: IC50 (μM) Of Various C-Proteinase Inhibitors
value_kind: log10 IC50 (log10 of the value in µM)
Use the decimal logarithm of IC50 (µM).

Example entries and their recorded answers appear below.
Q: GET /values?readout=log10 IC50&item= `COc1ccc(S(=O)(=O)N(CCC(=O)NO)Cc2ccc3c(c2)OCO3)cc1OC`
A: 0.25

Q: GET /values?readout=log10 IC50&item= `CS(=O)(=O)c1ccc(S(=O)(=O)N(CCC(=O)NO)Cc2ccc3c(c2)OCO3)cc1`
A: -0.46

Q: GET /values?readout=log10 IC50&item= `N/C(=N\O)c1ccc(S(=O)(=O)N(CCC(=O)NO)CCc2cccs2)cc1`
A: -0.74

Q: GET /values?readout=log10 IC50&item= `O=C(CCN(CCc1ccccc1)S(=O)(=O)c1cccs1)NO`
A: 0.08

Q: GET /values?readout=log10 IC50&item= `CCCCOc1ccc(S(=O)(=O)N(CCC(=O)NO)CCc2cccs2)cc1`
A: -0.09

Q: GET /values?readout=log10 IC50&item= `CC(=O)Nc1ccc(S(=O)(=O)N(CCC(=O)NO)Cc2ccc3c(c2)OCO3)cc1`
A: -0.26

Q: GET /values?readout=log10 IC50&item= COc1ccc(S(=O)(=O)N(CCC(=O)NO)C2C3CC4CC(C3)CC2C4)cc1 (centres unmarked)
A: 1.56

Q: GET /values?readout=log10 IC50&item= `N/C(=N\O)c1ccc(S(=O)(=O)N(CCC(=O)NO)Cc2ccc3c(c2)OCO3)cc1`
A: -0.64

Q: GET /values?readout=log10 IC50&item= `COc1ccc(S(=O)(=O)N(CCC(=O)NO)Cc2ccc3c(c2)OCO3)cc1`
A: -0.20

Q: GET /values?readout=log10 IC50&item= `CC(=O)Nc1ccc(S(=O)(=O)N(CCC(=O)NO)CCc2cccs2)cc1`
A: -0.41

***
Q: GET /values?readout=log10 IC50&item= `COc1ccccc1CCN(CCC(=O)NO)S(=O)(=O)c1ccc(C(=O)O)cc1`
A: 0.16

Q: GET /values?readout=log10 IC50&item= `N/C(=N\O)c1cccc(S(=O)(=O)N(CCC(=O)NO)CCc2cccs2)c1`
A: -0.08

Q: GET /values?readout=log10 IC50&item= `COc1ccc(CCN(CCC(=O)NO)S(=O)(=O)c2cccc(N)c2)cc1`
A: -0.49

Q: GET /values?readout=log10 IC50&item= `COc1ccc(S(=O)(=O)N(CCC(=O)NO)Cc2ccc(Cl)cc2)cc1`
A: 0.55

Values from patent US6506936B1
